Assay: Drug uptake in rat liver at 5 mg/kg, iv after 6 hrs
Type: ADME, organism-based
Set-up: dose 5 mg/kg, route intravenous
Conditions: liver, read-out: Drug uptake
Listed here are molecules together with their documented concentration at 6 h.

molecule	concentration at 6 h
COc1ccc2c(c1)[C@@H]1C[C@]1(C(=O)N1CC34CCCC3(CN(C)C4)C1)Cn1c-2c(C2CCCCC2)c2ccc(C(=O)NS(=O)(=O)C(C)C)cc21 (stereo not given in full)	428 nM
COc1ccc2c(c1)[C@@H]1C[C@]1(C(=O)N1CC34CN(C)CC3(CN(C)C4)C1)Cn1c-2c(C2CCCCC2)c2ccc(C(=O)NS(=O)(=O)C(C)C)cc21 (stereo not given in full)	66 nM
COc1ccc2c(c1)[C@@H]1C[C@]1(C(=O)N1CC34COCC3(CN(C)C4)C1)Cn1c-2c(C2CCCCC2)c2ccc(C(=O)NS(=O)(=O)C(C)C)cc21 (stereo not given in full)	52 nM
CCOCCN1CC23COCC2(C1)CN(C(=O)[C@]12C[C@H]1c1cc(OC)ccc1-c1c(C4CCCCC4)c4ccc(C(=O)NS(=O)(=O)C(C)C)cc4n1C2)C3 (stereo not given in full)	77 nM
COc1ccc2c(c1)[C@@H]1C[C@]1(C(=O)N1CC34CCC3(CN(C)C4)C1)Cn1c-2c(C2CCCCC2)c2ccc(C(=O)NS(=O)(=O)C(C)C)cc21 (stereo not given in full)	138 nM

* * *

Assay: Half life in dog liver microsomes
Assay type: ADME, Canis lupus familiaris

compound	half-life [min]
COc1ccc2c(c1)[C@@H]1C[C@]1(C(=O)N1CC34CCC3(CN(C(=O)N(C)C)C4)C1)Cn1c-2c(C2CCCCC2)c2ccc(C(=O)NS(=O)(=O)C(C)C)cc21 (stereo partly specified)	22

* * *

Test: Drug uptake in rat liver 10 mg/kg, po after 6 hrs
Format: ADME, organism-based
Parameters: dose 10 mg/kg, route oral
Settings: liver, read-out: Drug uptake
quantity-name: concentration at 6 h (nM)

molecule	quantity-name	endpoint-result
CCOCCN1CC23COCC2(C1)CN(C(=O)[C@]12C[C@H]1c1cc(OC)ccc1-c1c(C4CCCCC4)c4ccc(C(=O)NS(=O)(=O)C(C)C)cc4n1C2)C3 (stereo partly specified)	concentration at 6 h	116
COc1ccc2c(c1)[C@@H]1C[C@]1(C(=O)N1CC34CCCC3(CN(C)C4)C1)Cn1c-2c(C2CCCCC2)c2ccc(C(=O)NS(=O)(=O)C(C)C)cc21 (stereo partly specified)	concentration at 6 h	504
COc1ccc2c(c1)[C@@H]1C[C@]1(C(=O)N1CC34CCC3(CN(C)C4)C1)Cn1c-2c(C2CCCCC2)c2ccc(C(=O)NS(=O)(=O)C(C)C)cc21 (stereo partly specified)	concentration at 6 h	146
CCN1CC23COCC2(C1)CN(C(=O)[C@]12C[C@H]1c1cc(OC)ccc1-c1c(C4CCCCC4)c4ccc(C(=O)NS(=O)(=O)C(C)C)cc4n1C2)C3 (stereo partly specified)	concentration at 6 h	66
COc1ccc2c(c1)[C@@H]1C[C@]1(C(=O)N1CC34COCC3(CN(C)C4)C1)Cn1c-2c(C2CCCCC2)c2ccc(C(=O)NS(=O)(=O)C(C)C)cc21 (stereo partly specified)	concentration at 6 h	38
COc1ccc2c(c1)[C@@H]1C[C@]1(C(=O)N1CC34CN(C)CC3(CN(C)C4)C1)Cn1c-2c(C2CCCCC2)c2ccc(C(=O)NS(=O)(=O)C(C)C)cc21 (stereo partly specified)	concentration at 6 h	68

Where these numbers come from: ChEMBL document CHEMBL3232986
